tested on: Calf thymus DNA; test: Binding affinity to calf thymus DNA by UV-vis absorption spectrophotometric method; assay type: nucleic-acid assay; conditions: Bos taurus
MEASURED_ATTRIBUTE: Kb (×10⁴ No_unit)
Numbers only, in ×10⁴ No_unit.

// each listed compound needs a value for Kb
1. CC(=O)Nc1ccc(-c2cc(C(=O)NCCN(C)C)c3ccc4c(c3n2)CCCC4)cc1
2. COc1ccc(-c2cc(C(=O)NCCN(C)C)c3ccc4ccccc4c3n2)cc1

[2, 2]

// each listed compound needs a value for Kb
1. Cc1ccc(-c2cc(C(=O)NCCN(C)C)c3ccc4ccccc4c3n2)cc1
2. Cc1ccc(-c2cc(C(=O)NCCN(C)C)c3ccc4c(c3n2)CCCC4)cc1

1: 2.2; 2: 1.75
